Recorded EC50 Value (M), JKR9 reporter activation by peptide-loaded T2 cells values for a group of binders are listed next.
Target: MAGE-A1 target antigen peptide … presented by HLA-A*02:01 on cells (human)
Experiment: cell-based or functional assay
Respond numerically; units are M and should not be typed.

Binder	Observed
ht27M1166 (TCR, V domains shown) Valpha: GEDVEQSLFLSVREGDSSVINCTYTDSSSTYLYWYKQEPGAGLQLLTYIFSNMDMKQDQRLTVLLNKKDKHLSLRIADTQTGDSAIYFCAGSGGGTDKLIFGTGTRLQVFP Vbeta: GAVVSQHPSWVICKSGTSVKIECRSLDFQATTMFWYRQFPKQSLMLMATSNEGSKATYEQGVEKDKFLINHASLTLSTLTVTSAHPEDSSFYICQAREPGQGPYEQYFGPGTRLTVT	3.55e-07

Lab note: next binder to report on.
Data request: Using known records, supply EC50 Value (M), JKR9 reporter activation by peptide-loaded T2 cells for ht27M1557 (TCR, V domains shown) Valpha: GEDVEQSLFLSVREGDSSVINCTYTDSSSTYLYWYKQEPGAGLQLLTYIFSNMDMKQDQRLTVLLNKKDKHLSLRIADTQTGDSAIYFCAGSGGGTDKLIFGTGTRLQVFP Vbeta: GAVVSQHPSWVICKSGTSVKIECRSLDFQATTMFWYRQFPKQSLMLMATSNEGSKATYEQGVEKDKFLINHASLTLSTLTVTSAHPEDSSFYICSAREPGQEHLIQYFGPGTRLTVT
Data returned: 1.49e-08

The measured values listed here are drawn from patent EP4534554A1.
